- SUBJECT OF TEST: human PAR-2 (hPAR-2) receptor expressed in HEK-293 T cells in an endogenous manner (Homo sapiens, UniProt P55085)
- Construct: human PAR-2 (hPAR-2) receptor expressed in HEK-293 T cells in an endogenous manner; endogenous in cells
- Sequence (P55085 26-397): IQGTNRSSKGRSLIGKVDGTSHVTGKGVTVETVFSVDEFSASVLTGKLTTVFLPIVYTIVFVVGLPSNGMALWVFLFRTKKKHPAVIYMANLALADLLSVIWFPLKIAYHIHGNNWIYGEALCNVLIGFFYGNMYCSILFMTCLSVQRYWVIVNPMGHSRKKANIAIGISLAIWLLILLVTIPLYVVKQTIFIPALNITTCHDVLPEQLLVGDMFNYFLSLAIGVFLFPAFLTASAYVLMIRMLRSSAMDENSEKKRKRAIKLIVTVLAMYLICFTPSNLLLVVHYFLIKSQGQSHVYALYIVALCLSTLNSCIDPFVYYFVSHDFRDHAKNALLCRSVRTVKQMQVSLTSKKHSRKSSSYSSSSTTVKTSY
- TEST PROTOCOL: In vitro human PAR-2 functional antagonist activity using calcium assays (Fluo4AM, FLIPR Tetra)
- CONDITION SUMMARY: HEK-293 T cells stimulated by an EC80 of the 2-Furoyl-LIGRLO-NH2 peptide after 10 min incubation with compound; 20 concentrations, duplicate, two independent experiments
- Experimental: In vitro human PAR-2 functional antagonist activity using calcium assays […] Calcium assay: Receptor activity was detected by changes in intracellular calcium measured using the fluorescent Ca^2+ sensitive dye, Fluo4AM (Molecular Probes). […] Agonist and antagonist activities of compounds were consecutively evaluated on the same cell plate. Agonist activity was first measured after 10 min incubation with the compound alone. […]
pIC50: −log10 of the molar value.
Please provide measured pIC50 for the entries that follow.

Task: I'd like to know its pIC50. The compound in question is COC(=O)C1CCN(C(=O)c2ccc3c(-c4ccc(Cl)c(F)c4)cn(C(C)(C)C)c3n2)CC1(C)C (centres unmarked)
Result: 5.00 to 7.70

Task: I'd like to know its pIC50. The compound in question is "CC(C)(C(N)=O)c1ccnc(N2CCN(C(=O)c3ccc4c(-c5ccc(Cl)c(F)c5)cn(C(C)(C)C)c4n3)C(C)(C)C2)c1"
Result: > 7.70

Task: I'd like to know its pIC50. The compound in question is "COC(=O)CN1CCN(C(=O)c2ccc3c(-c4ccc(Cl)c(F)c4)cn(C(C)(C)C)c3n2)C(C)(C)C1=O"
Result: > 7.70

Task: I'd like to know its pIC50. The compound in question is "COc1ccc(Cn2cc(-c3ccc(Cl)c(F)c3)c3ccc(C(=O)N4CCNC(=O)C4(C)C)nc32)cc1"
Result: 5.00 to 7.70

Task: I'd like to know its pIC50. The compound in question is CC(C)(C)n1cc(-c2ccc(Cl)c(F)c2)c2ccc(C(=O)N3[C@@H]4CC[C@H]3CC(O)C4)nc21 (some centres unmarked)
Result: < 5.00

Task: I'd like to know its pIC50. The compound in question is CC(C)Cc1nn(-c2ccc(Cl)c(F)c2)c2ccc(C(=O)N3CCC(C(=O)O)C(C)(C)C3)nc12 (centres unmarked)
Result: < 5.00

Task: I'd like to know its pIC50. The compound in question is "CC(C)Cc1nn(-c2ccc(Cl)c(F)c2)c2ccc(C(=O)N3CCC4(CC3)C(=O)NCN4c3ccccc3)nc12"
Result: < 5.00

Task: I'd like to know its pIC50. The compound in question is "Cc1cc(NC2CCN(C(=O)c3ccc4c(-c5ccc(Cl)c(F)c5)cn(C(C)(C)C)c4n3)CC2)nc(C)c1C(=O)O"
Result: 5.00 to 7.70

Task: I'd like to know its pIC50. The compound in question is CC(C)(C)n1cc(-c2ccc(Cl)c(F)c2)c2ccc(C(=O)N3CCC4(NC(=O)NC4=O)C(F)(F)C3)nc21 (centres unmarked)
Result: 5.00 to 7.70

Task: I'd like to know its pIC50. The compound in question is "CC(C)Cn1cc(-c2ccc(C(F)(F)F)nc2)c2ccc(C(=O)N3CCNC(=O)C3(C)C)nc21"
Result: 5.00 to 7.70

Task: I'd like to know its pIC50. The compound in question is COC1CC(n2cc(-c3ccc(Cl)c(F)c3)c3ccc(C(=O)N4CCNC(=O)C4(C)C)nc32)C1 (centres unmarked)
Result: > 7.70

Task: I'd like to know its pIC50. The compound in question is "CC(C)Cn1cc(-c2cc(F)cc(F)c2)c2ccc(C(=O)N3CCNC(=O)C3(C)C)nc21"
Result: 5.00 to 7.70

Task: I'd like to know its pIC50. The compound in question is "Cc1cc2c(-c3ccc(Cl)c(F)c3)cn(CC(C)C)c2nc1C(=O)N1CCN(c2cc(C)c(C(=O)O)c(C)n2)CC1(C)C"
Result: 5.00 to 7.70

Task: I'd like to know its pIC50. The compound in question is "Cc1cc(N2CCN(C(=O)c3ccc4c(-c5ccc(Cl)c(F)c5)cn(C5CCOCC5)c4n3)C(C)(C)C2)nc(C)c1C(=O)O"
Result: > 7.70

----------
Please provide measured pIC50 for the entries that follow.
- SUBJECT OF TEST: human PAR-2 (hPAR-2) receptor expressed in HEK-293 T cells in an endogenous manner (Homo sapiens, UniProt P55085)
- Construct: human PAR-2 (hPAR-2) receptor expressed in HEK-293 T cells in an endogenous manner; endogenous in cells
- TEST PROTOCOL: In vitro human PAR-2 functional antagonist activity using calcium assays (Fluo4AM, FLIPR Tetra)
- CONDITION SUMMARY: HEK-293 T cells stimulated by an EC80 of the 2-Furoyl-LIGRLO-NH2 peptide after 10 min incubation with compound; 20 concentrations, duplicate, two independent experiments
pIC50: −log10 of the molar value.

Task: I'd like to know its pIC50. The compound in question is "CC(C)(C)n1cc(-c2ccc(Cl)c(F)c2)c2ccc(C(=O)N3CC[C@H]4CNC(=O)[C@H]43)nc21"
Result: 5.00 to 7.70

Task: I'd like to know its pIC50. The compound in question is "COC(=O)CC1CCN(C(=O)c2ccc3c(-c4ccc(Cl)c(F)c4)cn(CC(C)C)c3c2)CC1"
Result: 5.00 to 7.70

Task: I'd like to know its pIC50. The compound in question is "CCOP(=O)(OCC)c1ccc(N2CCN(C(=O)c3ccc4c(-c5ccc(Cl)c(F)c5)cn(C(C)(C)C)c4n3)C(C)(C)C2)nc1"
Result: 5.00 to 7.70

Task: I'd like to know its pIC50. The compound in question is "CC(C)Cn1cc(-c2cccc(Cl)c2)c2ccc(C(=O)N3CCNC(=O)C3(C)C)nc21"
Result: 5.00 to 7.70

Task: I'd like to know its pIC50. The compound in question is "CC(C)(C)n1cc(-c2ccc(Cl)c(F)c2)c2ccc(C(=O)N3CCC4(CCC(=O)N4)CC3)nc21"
Result: 5.00 to 7.70

Task: I'd like to know its pIC50. The compound in question is "CN(C)C(=O)CC1CCN(C(=O)c2ccc3c(-c4ccc(Cl)c(F)c4)cn(C(C)(C)C)c3n2)CC1"
Result: 5.00 to 7.70

Task: I'd like to know its pIC50. The compound in question is "CC(C)Cn1cc(-c2ccc(C(F)(F)F)cc2)c2ccc(C(=O)N3CCNC(=O)C3(C)C)nc21"
Result: 5.00 to 7.70

Task: I'd like to know its pIC50. The compound in question is "Cc1cc(N2CCN(C(=O)c3ccc4c(-c5ccc(Cl)c(F)c5)cn(CC(=O)O)c4n3)C(C)(C)C2)nc(C)c1C(=O)O"
Result: < 5.00

Task: I'd like to know its pIC50. The compound in question is "Cc1cc(N2CCN(C(=O)c3cc(C)c4c(-c5ccc(Cl)c(F)c5)cn(CC(C)C)c4n3)C(C)(C)C2)nc(C)c1C(=O)O"
Result: 5.00 to 7.70

Task: I'd like to know its pIC50. The compound in question is "Cc1cc(N2CCN(C(=O)c3ccc4c(-c5ccc(Cl)c(F)c5)cn(C(C)(C)C)c4n3)C(C)(C)C2)nc(C)c1C(=O)O"
Result: > 7.70

Task: I'd like to know its pIC50. The compound in question is "Cc1cc(N2CCN(C(=O)c3ccc4c(n3)c(CC(C)C)nn4-c3ccc(Cl)c(F)c3)C(C)(C)C2)nc(C)c1C(=O)O"
Result: 5.00 to 7.70

Task: I'd like to know its pIC50. The compound in question is "Cc1cc(N2CCN(C(=O)c3ccc4c(-c5ccc(Cl)c(F)c5)cn(CC5CC5)c4n3)C(C)(C)C2)nc(C)c1C(=O)O"
Result: > 7.70

Task: I'd like to know its pIC50. The compound in question is "CCOC(=O)c1ccc(N2CCN(C(=O)c3ccn4c(-c5ccc(Cl)cc5)nc(CC(C)C)c4c3)C(C)(C)C2)nc1"
Result: < 5.00

Task: I'd like to know its pIC50. The compound in question is "CC(C)Cn1cc(-c2ccc3ccccc3c2)c2ccc(C(=O)N3CCNC(=O)C3(C)C)nc21"
Result: 5.00 to 7.70

Task: I'd like to know its pIC50. The compound in question is "COC(=O)c1c(C)cc(N2CCN(C(=O)c3ccc4c(n3)c(C(C)(C)C)nn4-c3ccc(Cl)c(F)c3)C(C)(C)C2)nc1C"
Result: < 5.00

Task: I'd like to know its pIC50. The compound in question is "CCOCC(C)(C)n1cc(-c2ccc(Cl)c(F)c2)c2ccc(C(=O)N3CCN(c4cc(C)c(C(=O)O)c(C)n4)CC3(C)C)nc21"
Result: > 7.70

Task: I'd like to know its pIC50. The compound in question is "Cc1nn(-c2ccc(Cl)c(F)c2)c2ccc(C(=O)N3CCNC(=O)C3(C)C)nc12"
Result: 5.00 to 7.70

Task: I'd like to know its pIC50. The compound in question is "CC1(C)C(=O)NCCN1C(=O)c1ccc2c(-c3ccc(Cl)c(F)c3)cn(CCOCC(F)(F)F)c2n1"
Result: 5.00 to 7.70

Task: I'd like to know its pIC50. The compound in question is "Cc1cc(N2CCN(C(=O)c3ccc4c(-c5ccc(C(F)(F)F)nc5)cn(CC(C)C)c4n3)C(C)(C)C2)nc(C)c1C(=O)O"
Result: 5.00 to 7.70

Task: I'd like to know its pIC50. The compound in question is Cc1cc(N2CCC3(CCN(C(=O)c4ccc5c(-c6ccc(Cl)c(F)c6)cn(C(C)(C)C)c5n4)C3)C2)nc(C)c1C(=O)O (stereo not drawn)
Result: < 5.00

Task: I'd like to know its pIC50. The compound in question is "Cc1cc(N2C[C@@H]3C[C@H]2CN3C(=O)c2ccc3c(-c4ccc(Cl)c(F)c4)cn(C(C)(C)C)c3n2)nc(C)c1C(=O)O"
Result: 5.00 to 7.70

Task: I'd like to know its pIC50. The compound in question is "CC(C)Cn1cc(-c2ccc(Cl)c(F)c2)c2ccc(C(=O)N3CCC(CC(=O)O)CC3)cc21"
Result: 5.00 to 7.70

Task: I'd like to know its pIC50. The compound in question is "COCC(C)(C)n1cc(-c2ccc(Cl)c(F)c2)c2ccc(C(=O)N3CCN(c4cc(C)c(C(=O)O)c(C)n4)CC3(C)C)nc21"
Result: > 7.70

Task: I'd like to know its pIC50. The compound in question is "O=C(c1ccc2c(-c3ccc(Cl)c(F)c3)cn(CC(F)(F)F)c2n1)N1CC2CCC(C1)O2"
Result: < 5.00

Task: I'd like to know its pIC50. The compound in question is "CCOCCn1cc(-c2ccc(Cl)c(F)c2)c2ccc(C(=O)N3CCNC(=O)C3(C)C)nc21"
Result: 5.00 to 7.70

Task: I'd like to know its pIC50. The compound in question is "COc1ccc(-n2nc(CC(C)C)c3nc(C(=O)N4CCNC(=O)C4(C)C)ccc32)cn1"
Result: < 5.00

Task: I'd like to know its pIC50. The compound in question is "Cc1cc(N2CCN(C(=O)c3ccc4c(-c5ccc(F)c(F)c5)cn(CC(C)C)c4n3)C(C)(C)C2)nc(C)c1C(=O)O"
Result: > 7.70

Values were extracted from patent US20240066027A1.
